test system: 252836-082-R-J2-PDC tumor spheroids, viability; assay: Anticancer human tumor 252836-082-R-J2-PDC patient-derived head and neck squamous cell carcinoma cell line growth inhibition [PI3K]; settings: curve of first compound; second compound 0.1 µM; spheroids with HUVEC and MSC
pIC50: −log10 of the molar value.
experimental_endpoint: pIC50

Some entries whose results are on file:
CNC(=O)c1ccc(N2C(=S)N(c3ccc(C#N)c(C(F)(F)F)c3)C(=O)C2(C)C)cc1F + CC(Nc1ccc2c(c1)OCCn1cc(N3C(=O)OCC3C(F)F)nc1-2)C(N)=O: < 5.00
CC(Cn1ccc(-c2ccc(C#N)c(Cl)c2)n1)NC(=O)c1cc(C(C)O)[nH]n1 (stereo not drawn) + COc1c(OCCCN2CCOCC2)ccc2c3n(c(=NC(=O)c4cnc(N)nc4)nc12)CCN3: > 7.50

// next item, pIC50 requested
Look up and report measured pIC50 for this entry: CCN1CCN(Cc2ccc(Nc3ncc(F)c(-c4cc(F)c5nc(C)n(C(C)C)c5c4)n3)nc2)CC1 + CC(Nc1ncnc2nc[nH]c12)c1cc2cccc(Cl)c2c(=O)n1-c1ccccc1
< 6.00

====

test system: 252836-082-R-J2-PDC tumor spheroids, viability; assay: Anticancer human tumor 252836-082-R-J2-PDC cell line growth inhibition [PI3K]; details: second compound 0.0316 µM; first compound 0.1 µM; stronger effect = lower value; spheroids with HUVEC and MSC;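 further: spheroids exposed to agents for seven days before readout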;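 on viability, T/C: percent of vehicle DMSO control viability so 100% = untreated growth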
experimental_endpoint: viability, T/C (%)
Output spec: scalar in %, unitless text.

Some solved entries appear below for comparison.
CC1(C)CCC(CN2CCN(c3ccc(C(=O)NS(=O)(=O)c4ccc(NCC5CCOCC5)c([N+](=O)[O-])c4)c(Oc4cnc5[nH]ccc5c4)c3)CC2)=C(c2ccc(Cl)cc2)C1 + CC(Nc1ncnc2nc[nH]c12)c1cc2cccc(Cl)c2c(=O)n1-c1ccccc1: 88.3
CC(Cn1ccc(-c2ccc(C#N)c(Cl)c2)n1)NC(=O)c1cc(C(C)O)[nH]n1 (stereo not given) + CC(Nc1ccc2c(c1)OCCn1cc(N3C(=O)OCC3C(F)F)nc1-2)C(N)=O: 82.8
CC(C)n1nc(-c2ccc3oc(N)nc3c2)c2c(N)ncnc21 + CC(Nc1ncnc2nc[nH]c12)c1cc2cccc(Cl)c2c(=O)n1-c1ccccc1: 21.7

Please look at this molecule and report its viability, T/C: CC(Cn1ccc(-c2ccc(C#N)c(Cl)c2)n1)NC(=O)c1cc(C(C)O)[nH]n1 (stereo not given) + Cc1nc(NC(=O)N2CCCC2C(N)=O)sc1-c1ccnc(C(C)(C)C(F)(F)F)c1
75.4

Quote viability, T/C reported for CC(=O)c1c(C)c2cnc(Nc3ccc(N4CCNCC4)cn3)nc2n(C2CCCC2)c1=O + COc1c(OCCCN2CCOCC2)ccc2c3n(c(=NC(=O)c4cnc(N)nc4)nc12)CCN3 please.
62.6

====

tested on: 252836-082-R-J2-PDC tumor spheroids, viability; assay: Anticancer human tumor 252836-082-R-J2-PDC cell line growth inhibition [PI3K]; conditions: second compound 0.00316 µM; first compound 10 µM; stronger effect = lower value; spheroids with HUVEC and MSC;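 further: spheroids exposed to agents for seven days before readout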;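 on viability, T/C: percent of vehicle DMSO control viability so 100% = untreated growth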
# Lookup of reported viability, T/C keyed by entry
Write it as a number; the unit % goes unstated.

C[C@@H](NC(=O)c1ncnc(N)c1Cl)c1ncc(C(=O)Nc2cc(C(F)(F)F)c(Cl)cn2)s1 + COc1c(OCCCN2CCOCC2)ccc2c3n(c(=NC(=O)c4cnc(N)nc4)nc12)CCN3: 85.8

Please supply the value of reported viability, T/C for the item CNC(=O)c1ccc(N2C(=S)N(c3ccc(C#N)c(C(F)(F)F)c3)C(=O)C2(C)C)cc1F + COc1c(OCCCN2CCOCC2)ccc2c3n(c(=NC(=O)c4cnc(N)nc4)nc12)CCN3
77.7

Could you please provide reported viability, T/C for CCCS(=O)(=O)Nc1ccc(F)c(C(=O)c2c[nH]c3ncc(-c4ccc(Cl)cc4)cc23)c1F + COc1c(OCCCN2CCOCC2)ccc2c3n(c(=NC(=O)c4cnc(N)nc4)nc12)CCN3 ? Thanks!
7.48

Please supply the value of reported viability, T/C for the item C=CC(=O)N1CCN(c2nc(=O)n(-c3c(C)ccnc3C(C)C)c3nc(-c4c(O)cccc4F)c(F)cc23)C(C)C1 (stereo not drawn) + COc1c(OCCCN2CCOCC2)ccc2c3n(c(=NC(=O)c4cnc(N)nc4)nc12)CCN3
94.9

Provide one value: measured viability, T/C of Cn1nccc1Nc1nccc(-c2ccn(C(CO)c3ccc(Cl)c(F)c3)c(=O)c2)n1 (stereo not drawn) + COc1c(OCCCN2CCOCC2)ccc2c3n(c(=NC(=O)c4cnc(N)nc4)nc12)CCN3
70.3

Please give measured viability, T/C of the following entry: C=CC(=O)N1CCN(c2nc(=O)n(-c3c(C)ccnc3C(C)C)c3nc(-c4c(O)cccc4F)c(F)cc23)C(C)C1 (stereo not drawn) + CC(Nc1ccc2c(c1)OCCn1cc(N3C(=O)OCC3C(F)F)nc1-2)C(N)=O
95.9

Tell me its viability, T/C given CC(C)NCC(C(=O)N1CCN(c2ncnc3c2C(C)CC3O)CC1)c1ccc(Cl)cc1 (stereo not drawn) + CC(Nc1ccc2c(c1)OCCn1cc(N3C(=O)OCC3C(F)F)nc1-2)C(N)=O as the entry.
18.3

Look up viability, T/C of CC(C)NCC(C(=O)N1CCN(c2ncnc3c2C(C)CC3O)CC1)c1ccc(Cl)cc1 (stereo not drawn) + COc1c(OCCCN2CCOCC2)ccc2c3n(c(=NC(=O)c4cnc(N)nc4)nc12)CCN3 and report it.
20.3
